Tested on: LOX IMVI melanoma
assay overview: NCI-60 one-dose screen, 48 h
study conditions: 10 µM unless noted
Compounds without any hit were thinned out: in the full panel of roughly 83,000, 20% have a hit. Active and inactive are the calls of the source. The calls were made as follows: active = growth percent below 10; inactive = the rest.
Labels: true for active, false for inactive

molecule=CN1CCCN(CCNc2nccc(-c3c(-c4cccc(O)c4)nc4sccn34)n2)S1(=O)=O label=false
molecule=Cn1cnc([N+](=O)[O-])c1S(=O)(=O)Oc1cccc2ccccc12 label=true
molecule=CSc1nc(N)c2[nH]c(-c3cc4ccccc4[nH]c3=O)nc2n1 label=false
molecule=O=C(c1ccc(OCCN2CCCCC2)cc1)c1c(-c2ccc(O)cc2)sc2cc(O)ccc12 label=false
molecule=C#C[C@]1(O)CC[C@H]2[C@@H]3CC=C4c5sc(-c6cccc(Br)c6)nc5CC[C@]4(C)[C@H]3CC[C@@]21C label=false
molecule="C[C@@H]1CC2C3CCC4=CC(=O)C=C[C@]4(C)[C@@]3(Cl)[C@@H](O)C[C@]2(C)[C@@]1(OC(=O)c1ccco1)C(=O)CCl (some centres undefined)" label=false
molecule=O=C1c2cccc3cccc(c23)C(=O)N1CCCCCCCCCCN1C(=O)c2cccc3cccc(c23)C1=O label=false
molecule=CCN1CCN(Cc2ccc(NC(=O)Nc3ccc(-n4ccc5c(NC(=O)c6ccccc6)nccc54)cc3)cc2C(F)(F)F)CC1 label=true
molecule=Cc1ccc(Nc2cccc3ccccc23)cc1 label=false
molecule=N=c1nc(N2CCCCC2)cc(N)n1O label=false
molecule=CC(=O)Nc1ccc(/C=N/N2CCCCCC2)cc1 label=false
molecule="COc1cccc(C2C(C#N)=C(N)Oc3cc4c(cc32)OCO4)c1 (centres undefined)" label=false
molecule=COc1ccc(-c2nc(SCCC(C)C)nc(Nc3ccc(C(=O)O)cc3)c2C#N)cc1 label=false
molecule="CC(C)=CC[C@@H]1CC2(CC=C(C)C)C(=O)C(OC3(C(=O)c4ccccc4)C(=O)C4(CC=C(C)C)C[C@@H](CC=C(C)C)C(C)(C)C(CC=C(C)C)(C4=O)C3=O)(C(=O)c3ccccc3)C(=O)C(CC=C(C)C)(C2=O)C1(C)C (some centres undefined)" label=true
molecule=Cc1ccsc1C(=O)CC(=O)C(F)(F)C(F)(F)C(F)(F)F label=false
molecule=CC(=O)c1ccc(N2C(=O)c3ccc(Oc4ccccc4)cc3C2=O)cc1 label=false
molecule=CNCCCn1c2c(c3ccc(Cl)cc3c1=O)C(=O)c1cc(OC)cnc1-2 label=true
molecule=O=C(Nc1ccc([N+](=O)[O-])cc1)c1cc2ccccc2cc1O label=true
molecule=Clc1ccc(-c2nc(-c3cccs3)no2)cc1 label=false

----------
Recorded measurements of growth, one per entry
Tested on: OVCAR-5 ovarian
assay overview: NCI-60 one-dose screen, 48 h (100 = growth as untreated, 0 = no growth, -100 = all killed)
study conditions: 10 µM unless noted
Compounds without any hit were thinned out: in the full panel of roughly 83,000, 20% have a hit.
measure name: growth (%)

compound=CCC(=O)OCc1ccc(OC)cc1 study_system="OVCAR-5 ovarian" measure_name=growth measured_number=95
compound=CC(C)c1ccc(-c2cnc3nonc3n2)cc1 study_system="OVCAR-5 ovarian" measure_name=growth measured_number=37.6
compound=CCOC(=O)c1ccc(NC(=O)CSC(N)=O)cc1 study_system="OVCAR-5 ovarian" measure_name=growth measured_number=99.1
compound="CCN(CC)CCCC(C)Nc1ccnc2ccc(Oc3ccccc3)cc12 (configuration not stated)" study_system="OVCAR-5 ovarian" measure_name=growth measured_number=88.6
compound=CCCCCCCOc1cccc(/C=C2\N=C3SCCCN3C2=O)c1 study_system="OVCAR-5 ovarian" measure_name=growth measured_number=115
compound="O=C1N(Cc2ccccc2Cl)c2ccccc2C12NN=C(c1ccccc1)S2 (configuration not stated)" study_system="OVCAR-5 ovarian" measure_name=growth measured_number=78.6
compound=Cc1cccc(/C=N/n2c(-c3ccc(Cl)cc3)nc3c(Br)cc(Br)cc3c2=O)c1 study_system="OVCAR-5 ovarian" measure_name=growth measured_number=50.2
compound="CN1C(=O)C(C2=NNC(c3ccccc3C(=O)O)C2)C(=O)N(C)C1=O (configuration not stated)" study_system="OVCAR-5 ovarian" measure_name=growth measured_number=94.6
compound=OC(COCc1ccccc1)COCc1ccccc1 study_system="OVCAR-5 ovarian" measure_name=growth measured_number=108
compound=O=C(CCCN1CCC(O)(c2ccc(Br)cc2)CC1)c1ccc(F)cc1 study_system="OVCAR-5 ovarian" measure_name=growth measured_number=80
compound=O=C(Nc1cccc(N=Cc2c(O)ccc3ccccc23)c1)c1ccccc1 study_system="OVCAR-5 ovarian" measure_name=growth measured_number=108
compound="COc1ccc2c(c1)N(Cc1ccc(Cl)cc1)CCC2N1CCCC1=O (configuration not stated)" study_system="OVCAR-5 ovarian" measure_name=growth measured_number=66

----------
Tested on: SF-539 CNS
assay overview: NCI-60 one-dose screen, 48 h (100 = growth as untreated, 0 = no growth, -100 = all killed)
study conditions: 10 µM unless noted
The panel holds about 83,000 compounds, 20% with a hit somewhere; the sample as a whole holds those more often.
Recorded measurements of growth, one per entry
measure name: growth (%)

compound=COc1ccc2[nH]cc(C3(c4c[nH]c5ccc(OC)cc45)C(=O)Nc4ccc(F)cc43)c2c1 measured_number=78.5
compound=COc1cc(NC(=O)CSc2nc3ccc(Cl)cc3c(=O)n2Cc2ccccc2)cc(OC)c1OC measured_number=-6.78
compound=COc1cnc2c(c1)C(=O)c1c-2n(CCCN2CCNCC2)c(=O)c2cc(Cl)ccc12 measured_number=-93.8
compound=COc1cccc(-c2cc(-c3cccs3)c(C#N)c(=O)[nH]2)c1 measured_number=101
compound=Cc1ccc(C(=O)CC(=O)C(F)(F)C(F)(F)C(F)(F)F)s1 measured_number=98.7
compound=O=C(/C=C/c1ccccc1)c1c[nH]c2ccccc2c1=O measured_number=-24.5
compound=Fc1ccc(-c2cnc3nonc3n2)c(F)c1 measured_number=98.6
compound=CCCCCCCOc1cccc(/C=C2\N=C3SCCCN3C2=O)c1 measured_number=111
compound=Cc1ccc(Nc2cccc3ccccc23)cc1 measured_number=99.8
compound=CCOc1cc(/C=N\NC(=O)C[N+](C)(C)C)ccc1O measured_number=120
compound=O=C(/C=C/c1ccccc1Br)c1cccc(OCCCCOc2cccc(C(=O)/C=C/c3ccccc3Br)c2)c1 measured_number=102
compound=N/N=C(\C(=N\N)c1ccccc1)c1ccccc1 measured_number=103
compound=COc1ccc(Nc2nc(N)nc3c(=O)[nH]ccc23)cc1 measured_number=104
compound=Nc1c(Br)cc2c(c1Br)Cc1cc(Cl)ccc1-2 measured_number=89.5
compound=COc1ccc(-c2ccc(-c3ccc(C(=N)N)s3)s2)cc1 measured_number=-75.5
compound=COc1ccc(-n2c(COc3ccc(F)cc3)n[nH]c2=S)cc1 measured_number=101
compound=O=S1(=O)NCCN1CCNc1nccc(-c2c(-c3cccc(O)c3)nc3sccn23)n1 measured_number=109
compound=Fc1ccc(-c2nc(-c3ccc(-c4nc5ccc(F)cc5[nH]4)cc3)no2)cc1 measured_number=69.2
compound=O=C1c2cccc3cccc(c23)C(=O)N1CCCCCCCCCCN1C(=O)c2cccc3cccc(c23)C1=O measured_number=102
compound=C=CCOc1ccc2c(C)cc(=O)oc2c1 measured_number=103
compound=COc1cc2c(=O)n(CCCN(C)C)c3c4cc[nH]c4ncc3c2cc1OC measured_number=73.3
compound=Cc1cc(O)c2cc3c(O)c(O)ccc3cc2c1 measured_number=100
compound=CS(=O)(=O)c1ccc(C(=O)N/N=C/c2ccccc2O)cc1 measured_number=55.3
compound=COc1cnc2c(c1)C(=O)c1c-2n(CCCN2CCCC2)c(=O)c2cc(Cl)ccc12 measured_number=4.9
compound=NC(N)=N/N=C/c1cccc(Cl)c1Cl measured_number=96.4
compound=CN(C)c1nc(-c2ccco2)n2nc(-c3ccc(Cl)cc3)cc2n1 measured_number=63.4
compound=Clc1cc2nc(-c3ccccc3)c(-c3ccccc3)nc2cc1Cl measured_number=97.3
compound=COc1ccc([C@H]2c3[nH]c4ccccc4c3C[C@H]3C(=O)N(CCCCCCC(=O)NO)CC(=O)N23)cc1 measured_number=38.1
compound=O=C(CCl)N1c2ccccc2Oc2ccc3ccccc3c21 measured_number=-80.1
compound=C(=Nc1ccc(-c2ccc(N=Cc3ccccc3)cc2)cc1)c1ccccc1 measured_number=107
compound=CC(C)(c1ccccc1)c1cc(O)c(C(C)(C)c2ccccc2)cc1O measured_number=50.4
compound=Cn1cnc([N+](=O)[O-])c1S(=O)(=O)Oc1cccc2ccccc12 measured_number=52.8
compound=COc1cc(-c2nn(C(=O)NCCN3CCN(C)CC3)cc2-c2ccncc2)ccc1Cl measured_number=63.6
compound=CCN(CC)CCNC(=O)C(F)(F)C(F)(F)C(F)(F)F measured_number=90.7
compound="CN1C(=O)N(C)C2C1NN=c1s/c(=C\\c3ccc(Br)cc3)c(=O)n12 (stereo not drawn)" measured_number=7.53
compound="O=C1C=CN2C(=O)CC=CC2[C@@H]1O (stereo partly drawn)" measured_number=104
compound=COc1ccc(/C=C(\C#N)c2cc(OC)c(OC)c(OC)c2)cc1 measured_number=8.76
compound=N=C(N)c1ccc(-c2ccc(-c3cccs3)s2)cc1F measured_number=-93.9
compound=CN1C2CCC1/C(=C\c1ccc(Cl)cc1)C(=O)/C2=C/c1ccc(Cl)cc1 measured_number=91.5
compound=COc1ccc(-c2nc3ccccc3n3cccc23)cc1 measured_number=101
compound=CC(C)(C)OC[C@@H]1N=C(c2ccc(Br)cc2)Nc2nc3ccccn3c2C1=O measured_number=75.7
compound="CC(C)(C)[Si](C)(C)OC1[C@@H](O[Si](C)(C)C(C)(C)C)[C@@H](CNC(=O)NC(=O)NC(=O)CI)O[C@H]1n1cnc2c(NC(=O)Nc3ccccc3)ncnc21 (stereo partly drawn)" measured_number=-63.2
compound=COc1cccc(/C(C)=N/NC(=O)CSc2nc3ccccc3c(=O)n2CCc2ccc(S(N)(=O)=O)cc2)c1 measured_number=-18.1
